Target: MAST1, Q9Y2H9
Sequence (Q9Y2H9 962-1065): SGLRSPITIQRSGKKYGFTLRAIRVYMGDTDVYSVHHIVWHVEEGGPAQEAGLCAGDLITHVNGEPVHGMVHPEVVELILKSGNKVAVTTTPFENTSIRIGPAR
Assay: holdup assay
Set-up: key: below the threshold = too weak to quantify, mostly under pKd 3.1 to 4
Details: plain residues with an end cap or a label only (N-terminal biotin on a linker: ado-ado)

binder: QLSFNTDTLC [ABCA2, Q9BZC7]
pKd: 4.16
--
binder: RDPPAEWTRV [PTPN18, Q99952]
pKd: 4.97
--
binder: SVTSERETNI [SLC16A7, O60669]
pKd: 4.14
--
binder: ARGPPRESEV [FAM110D, Q8TAY7]
pKd: 4.48
--
binder: MHIQEKGFHV [EPHA6, Q9UF33]
pKd: 3.69
--
binder: SPDRDRESIV [SCN5A, Q14524]
pKd: 3.83
--
binder: RFQQRMQTHV [KIRREL1, Q96J84]
pKd: 4.76
--
binder: PSHPRLQTHV [KIRREL2, Q6UWL6]
pKd: 4.5
--
binder: TRKRSGEAAV [PFKM, P08237]
pKd: 4.08
--
binder: PPGKHLVTEV [KCNA7, Q96RP8]
pKd: 4.58
--
binder: DPAESMESLV [PTPRG, P23470]
pKd: 4.31
--
binder: KSRVAFFEEL [NF2, P35240;P35240-1]
pKd: 4.37
--
binder: REEPDHSTEV [CCRL2, O00421]
pKd: 4.74
--
binder: RQKEVRESKC [SCN8A, Q9UQD0]
pKd: 4.34
--
binder: GTGYDRKDYV [CLDN3, O15551]
pKd: 4.03
--
binder: GIKKITSTAL [RPS6KA3, P51812]
pKd: 5.06
--
binder: LPAVCYDIDI [PTTG2, Q9NZH5]
pKd: 4.08
--
binder: TGLWKHETTV [ADGRA3, Q8IWK6]
pKd: 4.78
--
binder: NISYRRESAI [KCNJ4, P48050]
pKd: 4.06
--
binder: QSYPSKHDYV [CLDN18, P56856]
pKd: 4

Data provenance: paper PMC9482650
